Reported apparent KD of MS2 coat protein values for a set of sequences
tested on: MS2 coat protein; assay: apparent KD of MS2 coat protein; designed switch direction (-1 OFF switch, 1 ON switch): -1; higher = weaker reporter binding; settings: input ligand: none
resultType: apparent KD of MS2 coat protein (nM)

polymerSequence	experimentalResult
GUAAGAUCCGUCAGGAUAUAUGCCCAAGGAGGGACGUAGAAGGGACAUGAGGAUCACCCAUGUACCUCAAGGAU [Eternabot (L1) Solution 97] (Eterna round: R97, puzzle: Brourd's mod of Exclusion 4)	16.1
CCUCGAAGGCAAGGAUAUCCUACAUUGUUCUGGCCCGGGCAUGCUACAUGAGGAUCACCCAUGUGGGAGAAGGUGCGCCACGGC [Design 30] (Eterna round: R96, puzzle: Exclusion NG 2)	58.3
CACAAAACUGUCAGGAUAUCAGAUGCCGACCCAUAUGAGAAGGGACAUGAGGAUCACCCAUGUACUGGUUCUCA [BmEX4 B.6] (Eterna round: R97, puzzle: Brourd's mod of Exclusion 4)	19.8
AGUCAGGCGGUAGGAUAUCCAAACCGAGUGACCCUUUCAUAACAUGAGGAUCACCCAUGUCGGUGGGAGAAGGGCCGUACGGCA [Mat - Exclusion NG 2 - Mod of JL - D65] (Eterna round: R96, puzzle: Exclusion NG 2)	159
GCUGGUCGAGGAUAUACAUGAGGAUCACCCAUGUGGUCACGUGACGAUAGUCACGAAUGUAGAAGGCGACCAGC [E3/3-A1] (Eterna round: R97, puzzle: Exclusion 3)	161
AAAUUAGCAAGUAGGUCCGACAUGAGGAUCACCCAUGUUAUCUGAAAUAACGCAGCAUGAUUGUGCGCUCGUCUUAG [Sensor-V1 #7] (Eterna round: R97, puzzle: Sensor, turn-off variant 1)	68.6
UACAUGAGGAUCACCCAUGUACCUUAUGUAAGAGUGGGAAGUAAGGAUAUAUAUGAAGGAAUGAAAUAGAAGGUGCAUAGAGAG [Default title] (Eterna round: R96, puzzle: Exclusion NG 3)	93.3
CUGCUGGAGCUUUGCUUUGGUCGUACAUGAGGAUCACCCAUGUAGGAUAUGGUAGGCUUUGCUUGCUAGAAGGAUAGAGUGGUC [salish99_ExNG3_r04_609] (Eterna round: R96, puzzle: Exclusion NG 3)	88.8
GGCAGGCUAGAGGAUAUGCAUUGGCUUGGCCAAGCAGAAGGCUAGACAUGAGGAUCACCCAUGUGUUCCUUGUG [jl-ex6-4.36 ViennaUCT mod] (Eterna round: R97, puzzle: Exclusion 6)	93.6

* * *

tested on: MS2 coat protein; experiment: apparent KD of MS2 coat protein; designed switch direction (-1 OFF switch, 1 ON switch): -1; higher = weaker reporter binding; conditions: input ligand: FMN 200 uM

polymerSequence	apparent KD of MS2 coat protein
GACCUCAGUCAGGAUAUAGAUAGCGAUAGCGAAUUAGAAGGGACCACAUGAGGAUCACCCAUGUUAGUAUCAUU [Eternabot (L2) Solution 10] (Eterna round: R97, puzzle: Exclusion 6)	38.9 nM
UUUAUGCUAGGAUAUGCACCCUCGAACAUGAGGAUCACCCAUGUACAAUAAAAGCAUGGAGCAGAAGGAGCUCCCA [EX5 A.24] (Eterna round: R97, puzzle: Exclusion 5)	378 nM
GCCGAAAGCGUAGGAUAUUGAAUAAAGCGGAAACGCAAGACAUGAGGAUCACCCAUGUGUCCGGACGAGAAGGGCGAAAGCGGC [AK ExNG2-V2-2] (Eterna round: R96, puzzle: Exclusion NG 2)	33.6 nM
GAUUAACAUGAGGAUCACCCAUGUGAGGAUAUGAACUUGCCCACUUACCAGAUAAAGUUUAGAAGGCGCAUUCU [1986#35] (Eterna round: R97, puzzle: Exclusion 1)	47.3 nM
AGAUGCUUAAGUCGACAUGAGGAUCACCCAUGUACAGUUAACGAGGAUAUCCGAGAUAAAUAAUAGGAGAAGGCGUGAUCAUGA [Ex NG3 #2] (Eterna round: R96, puzzle: Exclusion NG 3)	56.6 nM
UUUGAUAGCACAGGAUAUUGUGAUUUGAGUUGACAAGAAGGGUGUACAUGAGGAUCACCCAUGUAAUGGUUGCCUCGUUGACUU [JR_ExcNG1_Sub006] (Eterna round: R96, puzzle: Exclusion NG 1)	48.8 nM
AGAGUGCUGCGAGGAUAUACAUGAGGAUCACCCAUGUAAAAGUGUGAGGCUUUGCCUCACACGAAGUAGAAGGCGCAGUACUCA [Mat - Exclusion NG 2 - Mod of JL - D33] (Eterna round: R96, puzzle: Exclusion NG 2)	13 nM
GAAUAGCGAGGAUAUACAUGAGGAUCACCCAUGUGAUCCUUAGGCUGUUCAAGCCAAUGUAGAAGGCGCAAAUU [jl-ex3.4.58 ViennaUCT mod] (Eterna round: R97, puzzle: Exclusion 3)	76.6 nM
CCAAGCUUAUUCAUUAACAACAUGAGGAUCACCCAUGUAUAGGCAAUUAUGACUGGGCUCUUUAGUGCUCGUCUUAU [Sensor-V1 #25] (Eterna round: R97, puzzle: Sensor, turn-off variant 1)	16.2 nM
